# experimental details: Phase 1b MAD plasma pharmacokinetics, non-compartmental analysis
# Assay type: in vivo, human
# experimental conditions: human, plasma, po, 360 mg SDD, Table 35 (interim): Cohort D (AD), 360 mg SDD (90 mg NTRX-07) QD oral, Day 7; mean ± S.D.; read-out: Tmax
measured metric: Tmax (h)
Answers are plain numbers, in h.

Request: Specify measured Tmax for CC1(Cc2ccccc2)COc2cc(C(=O)N3CCCCC3)ccc21 (stereo not shown) .
Response: 1.1

====

# experimental details: Phase 1b MAD plasma pharmacokinetics, non-compartmental analysis
# Assay type: in vivo, human
# experimental conditions: human, plasma, oral, 90 mg, high dose (90 mg), Non-AD participants; read-out: average of AUC0-24 h
# Experimental: Methods: All study procedures were approved by the IRB, and informed consent was obtained. […] Subjects were assessed for changes in vital signs, including maneuvers to induce lightheadedness, electrocardiograms, 24-hour electroencephalograms (EEG), and safety laboratory studies. […] Raw bioanalytical data were received from Nuvisan following analysis of plasma samples from each of four cohorts. PK parameters were calculated by noncompartmental analysis using standard equations. […]
measured metric: AUC(0-t) (ng·h/mL)
Give bare numbers, in ng·h/mL.

Request: Specify measured AUC(0-t) for CC1(Cc2ccccc2)COc2cc(C(=O)N3CCCCC3)ccc21 (stereo not shown) [NTRX-07] .
Response: 1290
